Each entry below carries its recorded viability at 48 h, 0.1 µM.
Assay: Cytotoxicity against African green monkey COS7 cells assessed as cell viability at 0.1 uM after 48 hrs by MTT assay relative to control
Type: cell-based, COS-7
Details: chlorocebus aethiops, read-out: Activity
observed property: viability at 48 h, 0.1 µM (%)

{"columns": ["chem smiles", "meas value"],
 "data": [
  ["CC(=O)O[C@H]1C(=O)[C@@]2(C)[C@H]([C@H](OC(=O)c3ccccc3)[C@]3(O)C[C@H](OC(=O)[C@H](OC(=O)CCC(=O)OC[C@@H](OC(=O)CCCCCN(CCCNC(=N)N)CCCNC(=N)N)[C@@H](OC(=O)CCCCCN(CCCNC(=N)N)CCCNC(=N)N)[C@H](OC(=O)CCCCCN(CCCNC(=N)N)CCCNC(=N)N)[C@H](CO)OC(=O)CCCCCN(CCCNC(=N)N)CCCNC(=N)N)[C@@H](NC(=O)c4ccccc4)c4ccccc4)C(C)=C1C3(C)C)[C@]1(OC(C)=O)CO[C@@H]1C[C@@H]2O.Cl", 96.2],
  ["CC(=O)O[C@H]1C(=O)[C@@]2(C)[C@H]([C@H](OC(=O)c3ccccc3)[C@]3(O)C[C@H](OC(=O)[C@H](O)[C@@H](NC(=O)c4ccccc4)c4ccccc4)C(C)=C1C3(C)C)[C@]1(OC(C)=O)CO[C@@H]1C[C@@H]2O", 65.4]
]}

* * *

Each entry below carries its recorded viability at 48 h, 10 µM.
Assay: Cytotoxicity against African green monkey COS7 cells assessed as cell viability at 10 uM after 48 hrs by MTT assay relative to control
Type: cell-based, COS-7
Details: chlorocebus aethiops, read-out: Activity

{"columns": ["compound", "viability at 48 h, 10 µM / %"],
 "data": [
  ["CC(=O)O[C@H]1C(=O)[C@@]2(C)[C@H]([C@H](OC(=O)c3ccccc3)[C@]3(O)C[C@H](OC(=O)[C@H](OC(=O)CCC(=O)OC[C@@H](OC(=O)CCCCCN(CCCNC(=N)N)CCCNC(=N)N)[C@@H](OC(=O)CCCCCN(CCCNC(=N)N)CCCNC(=N)N)[C@H](OC(=O)CCCCCN(CCCNC(=N)N)CCCNC(=N)N)[C@H](CO)OC(=O)CCCCCN(CCCNC(=N)N)CCCNC(=N)N)[C@@H](NC(=O)c4ccccc4)c4ccccc4)C(C)=C1C3(C)C)[C@]1(OC(C)=O)CO[C@@H]1C[C@@H]2O.Cl", 94.5],
  ["CC(=O)O[C@H]1C(=O)[C@@]2(C)[C@H]([C@H](OC(=O)c3ccccc3)[C@]3(O)C[C@H](OC(=O)[C@H](O)[C@@H](NC(=O)c4ccccc4)c4ccccc4)C(C)=C1C3(C)C)[C@]1(OC(C)=O)CO[C@@H]1C[C@@H]2O [PACLITAXEL]", 71.9]
]}

* * *

Assay: Cytotoxicity against African green monkey COS7 cells assessed as cell viability at 100 uM after 48 hrs by MTT assay relative to control
Assay type: cell-based, COS-7
Conditions: chlorocebus aethiops, read-out: Activity
observed property: viability at 48 h, 100 µM (%)

{"columns": ["chem smiles", "observed property", "meas value"],
 "data": [
  ["CC(=O)O[C@H]1C(=O)[C@@]2(C)[C@H]([C@H](OC(=O)c3ccccc3)[C@]3(O)C[C@H](OC(=O)[C@H](O)[C@@H](NC(=O)c4ccccc4)c4ccccc4)C(C)=C1C3(C)C)[C@]1(OC(C)=O)CO[C@@H]1C[C@@H]2O", "viability at 48 h, 100 µM", 41.5],
  ["CC(=O)O[C@H]1C(=O)[C@@]2(C)[C@H]([C@H](OC(=O)c3ccccc3)[C@]3(O)C[C@H](OC(=O)[C@H](OC(=O)CCC(=O)OC[C@@H](OC(=O)CCCCCN(CCCNC(=N)N)CCCNC(=N)N)[C@@H](OC(=O)CCCCCN(CCCNC(=N)N)CCCNC(=N)N)[C@H](OC(=O)CCCCCN(CCCNC(=N)N)CCCNC(=N)N)[C@H](CO)OC(=O)CCCCCN(CCCNC(=N)N)CCCNC(=N)N)[C@@H](NC(=O)c4ccccc4)c4ccccc4)C(C)=C1C3(C)C)[C@]1(OC(C)=O)CO[C@@H]1C[C@@H]2O.Cl", "viability at 48 h, 100 µM", 20.6]
]}

Reference source for all entries: ChEMBL document CHEMBL3217738
